molecular target: neuromuscular junction nicotinic acetylcholine receptor (Tetronarce californica, UniProt P02710+P02714+P02718); assay: biochemical; type: binding, Torpedo Californica
Sequence (P02714 18-506): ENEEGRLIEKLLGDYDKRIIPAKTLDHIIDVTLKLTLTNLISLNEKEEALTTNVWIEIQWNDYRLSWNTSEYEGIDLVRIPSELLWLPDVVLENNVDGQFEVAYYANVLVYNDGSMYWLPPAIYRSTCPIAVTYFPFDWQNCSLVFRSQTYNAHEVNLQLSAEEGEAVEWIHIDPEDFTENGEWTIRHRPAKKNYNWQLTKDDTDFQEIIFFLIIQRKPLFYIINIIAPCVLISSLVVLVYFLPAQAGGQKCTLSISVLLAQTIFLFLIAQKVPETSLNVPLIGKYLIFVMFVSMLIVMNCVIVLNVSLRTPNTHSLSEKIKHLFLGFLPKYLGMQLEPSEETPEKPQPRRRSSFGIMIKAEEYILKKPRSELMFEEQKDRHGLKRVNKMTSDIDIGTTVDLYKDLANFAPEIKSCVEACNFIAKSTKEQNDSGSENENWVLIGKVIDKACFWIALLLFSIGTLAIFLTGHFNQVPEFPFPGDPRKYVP
Sequence (P02710 25-461): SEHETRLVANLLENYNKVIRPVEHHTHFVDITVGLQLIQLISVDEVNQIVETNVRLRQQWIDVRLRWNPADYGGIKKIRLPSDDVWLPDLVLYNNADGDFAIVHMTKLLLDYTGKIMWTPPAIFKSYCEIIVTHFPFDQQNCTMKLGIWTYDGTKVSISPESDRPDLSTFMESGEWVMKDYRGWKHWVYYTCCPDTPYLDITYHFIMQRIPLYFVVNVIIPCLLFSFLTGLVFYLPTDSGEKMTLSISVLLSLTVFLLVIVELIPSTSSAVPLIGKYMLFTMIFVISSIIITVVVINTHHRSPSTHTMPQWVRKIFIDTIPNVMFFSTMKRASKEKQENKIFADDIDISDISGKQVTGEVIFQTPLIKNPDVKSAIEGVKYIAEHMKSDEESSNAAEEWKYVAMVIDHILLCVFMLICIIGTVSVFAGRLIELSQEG
Sequence (P02712 25-493, further chain): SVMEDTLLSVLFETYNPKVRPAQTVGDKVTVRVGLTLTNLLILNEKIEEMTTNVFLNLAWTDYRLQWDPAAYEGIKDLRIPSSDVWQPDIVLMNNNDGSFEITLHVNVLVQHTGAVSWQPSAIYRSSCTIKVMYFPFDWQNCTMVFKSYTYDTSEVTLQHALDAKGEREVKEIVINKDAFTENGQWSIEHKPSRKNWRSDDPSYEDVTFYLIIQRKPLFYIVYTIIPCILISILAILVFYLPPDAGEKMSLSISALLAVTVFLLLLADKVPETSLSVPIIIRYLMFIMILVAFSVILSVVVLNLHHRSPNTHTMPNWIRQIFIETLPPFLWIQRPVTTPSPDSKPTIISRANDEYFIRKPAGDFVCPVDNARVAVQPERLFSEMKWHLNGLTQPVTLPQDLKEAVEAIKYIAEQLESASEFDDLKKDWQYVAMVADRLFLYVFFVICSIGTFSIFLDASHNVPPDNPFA
Sequence (P02718 22-522): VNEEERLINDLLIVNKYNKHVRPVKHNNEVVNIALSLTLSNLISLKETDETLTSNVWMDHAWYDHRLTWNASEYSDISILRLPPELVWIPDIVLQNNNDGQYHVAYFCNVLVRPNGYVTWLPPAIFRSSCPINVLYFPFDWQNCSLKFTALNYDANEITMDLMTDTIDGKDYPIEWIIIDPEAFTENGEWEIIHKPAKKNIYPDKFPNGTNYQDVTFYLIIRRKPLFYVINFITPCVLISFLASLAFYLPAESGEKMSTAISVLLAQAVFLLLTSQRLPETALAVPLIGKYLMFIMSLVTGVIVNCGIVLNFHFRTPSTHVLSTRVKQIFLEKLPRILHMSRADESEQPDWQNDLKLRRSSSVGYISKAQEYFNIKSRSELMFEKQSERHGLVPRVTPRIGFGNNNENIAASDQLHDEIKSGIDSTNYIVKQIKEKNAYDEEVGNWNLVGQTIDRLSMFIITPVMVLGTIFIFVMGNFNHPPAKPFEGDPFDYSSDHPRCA
Structures can show the parent of a compound that is named as a salt.
RECORDED METRIC: pKi
FYI, pKi means -log10 of a concentration in mol per litre.

Query: I'd like to know its pKi. The molecule in question is Clc1ccc(OC[C@H]2CCN2)cn1 [Example 4, hydrochloride]
Reply: 4.78

---

conditions: dog, in vivo, po
1.0 means recorded AUD0. is 20 ng·h/mL or above; 0.0 means it is below 20 ng·h/mL.

COc1ccc(C(=O)N2CC[C@@H]2COc2ccc(F)nc2)cc1; 1.0
O=C(c1ccc(Cl)cc1)N1CC[C@@H]1COc1ccc(F)nc1; 0.0
Cc1ccc(C(=O)N2CC[C@@H]2COc2ccc(F)nc2)cc1; 1.0

Query: AUD0. >= 20 ng·h/mL for O=C(c1ccccc1)N1CC[C@@H]1COc1ccc(F)nc1 ?
Reply: 0.0

Query: Note, next up: COC(=O)c1ccc(C(=O)N2CC[C@@H]2COc2ccc(F)nc2)cc1
Reply: 1.0

Query: Note, next up: O=C(c1ccc([N+](=O)[O-])cc1)N1CC[C@@H]1COc1ccc(F)nc1
Reply: 0.0

Query: Note, next up: O=C(c1ccc(F)cc1)N1CC[C@@H]1COc1ccc(F)nc1
Reply: 0.0

---

target: neuronal nicotinic acetylcholine receptors (Rattus norvegicus, UniProt P09483+P12390); construct: crude synaptic membrane preparations from whole rat brain; from tissue; host or cells: whole rat brain, crude synaptic membranes; assay: [3H]-cytisine binding to neuronal nicotinic acetylcholine receptors, whole rat brain membranes; details: [3H]-cytisine 1.25 nM, whole rat brain membranes; read-out: [3H] CYT Ki
Sequence (P09483 31-630): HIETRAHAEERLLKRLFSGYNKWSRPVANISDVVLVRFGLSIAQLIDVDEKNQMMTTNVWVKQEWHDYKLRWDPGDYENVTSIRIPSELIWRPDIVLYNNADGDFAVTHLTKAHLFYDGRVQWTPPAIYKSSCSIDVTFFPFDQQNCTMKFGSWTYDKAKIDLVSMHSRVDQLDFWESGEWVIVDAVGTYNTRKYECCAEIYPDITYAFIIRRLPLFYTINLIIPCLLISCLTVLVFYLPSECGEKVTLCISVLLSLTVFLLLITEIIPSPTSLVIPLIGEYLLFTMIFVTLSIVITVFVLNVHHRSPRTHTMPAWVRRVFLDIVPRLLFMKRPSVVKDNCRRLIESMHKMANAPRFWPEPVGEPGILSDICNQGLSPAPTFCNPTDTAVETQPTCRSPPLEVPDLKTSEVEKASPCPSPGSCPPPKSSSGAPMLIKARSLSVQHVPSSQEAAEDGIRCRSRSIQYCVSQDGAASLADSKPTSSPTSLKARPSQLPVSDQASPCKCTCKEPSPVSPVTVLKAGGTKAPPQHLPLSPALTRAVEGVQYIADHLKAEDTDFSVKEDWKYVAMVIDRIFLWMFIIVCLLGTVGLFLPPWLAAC
Sequence (P12390 25-500): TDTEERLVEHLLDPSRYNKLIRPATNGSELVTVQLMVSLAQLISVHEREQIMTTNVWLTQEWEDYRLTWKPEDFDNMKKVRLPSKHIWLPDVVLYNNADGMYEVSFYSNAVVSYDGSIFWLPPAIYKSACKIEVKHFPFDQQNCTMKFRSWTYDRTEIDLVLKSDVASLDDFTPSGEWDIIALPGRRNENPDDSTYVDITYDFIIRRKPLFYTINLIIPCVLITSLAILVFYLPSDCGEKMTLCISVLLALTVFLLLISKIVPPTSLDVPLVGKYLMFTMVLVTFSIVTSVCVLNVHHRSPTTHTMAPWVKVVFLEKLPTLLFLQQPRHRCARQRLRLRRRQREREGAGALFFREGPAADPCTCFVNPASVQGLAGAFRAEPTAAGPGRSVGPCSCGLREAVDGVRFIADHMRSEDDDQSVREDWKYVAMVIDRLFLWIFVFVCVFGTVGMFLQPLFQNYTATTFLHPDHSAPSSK
pKi: −log10 of the molar value. Structures can show the parent of a compound that is named as a salt.
yes (1) means recorded pKi is 10 or above; no (0) means it is below 10.

Clc1ncc(OC[C@H]2CCN2)cc1Br [Example 18, hydrochloride]; yes (1)
Cc1cncc(OC[C@@H]2CCN2)c1; yes (1)
CCOc1cncc(OC[C@@H]2CCN2)c1 [Example 120, tosylate]; yes (1)
Fc1ncc(OCC2CCN2)cc1Cl (centres unmarked); yes (1)
C=Cc1cc(OC[C@@H]2CCN2)cnc1Cl [Example 26, hydrochloride]; no (0)
C=Cc1cc(OC[C@@H]2CCN2)cnc1C [Example 35, hydrochloride]; no (0)
CCCc1cncc(OC[C@@H]2CCN2)c1 [Example 24, hydrochloride]; yes (1)
CCc1cc(OC[C@@H]2CCN2)cnc1C [Example 36, hydrochloride]; yes (1)

Query: pKi >= 10 for Cc1ccc(OC[C@H]2CCN2)c(F)n1 [Example 118, tosylate] ?
Reply: no (0)

Query: Note, next up: C#Cc1cc(OC[C@@H]2CCN2)cnc1Cl [Example 30, hydrochloride]
Reply: yes (1)

Query: Note, next up: Clc1cncc(OC[C@@H]2CCN2)c1 [Example 21, dihydrochloride]
Reply: yes (1)

Query: Note, next up: Cl.Cl.Clc1ccc(OC[C@@H]2CCN2)cn1 [Example 19, dihydrochloride]
Reply: yes (1)

Query: Note, next up: Clc1ncccc1OC[C@H]1CCN1 [Example 97, tosylate]
Reply: no (0)

Query: Note, next up: Clc1ncccc1OC[C@@H]1CCN1 [Example 121, hydrochloride]
Reply: no (0)
